assayed-target: human P450 17A1 (Homo sapiens)
Sequence (P05093 24-508 limits assumed): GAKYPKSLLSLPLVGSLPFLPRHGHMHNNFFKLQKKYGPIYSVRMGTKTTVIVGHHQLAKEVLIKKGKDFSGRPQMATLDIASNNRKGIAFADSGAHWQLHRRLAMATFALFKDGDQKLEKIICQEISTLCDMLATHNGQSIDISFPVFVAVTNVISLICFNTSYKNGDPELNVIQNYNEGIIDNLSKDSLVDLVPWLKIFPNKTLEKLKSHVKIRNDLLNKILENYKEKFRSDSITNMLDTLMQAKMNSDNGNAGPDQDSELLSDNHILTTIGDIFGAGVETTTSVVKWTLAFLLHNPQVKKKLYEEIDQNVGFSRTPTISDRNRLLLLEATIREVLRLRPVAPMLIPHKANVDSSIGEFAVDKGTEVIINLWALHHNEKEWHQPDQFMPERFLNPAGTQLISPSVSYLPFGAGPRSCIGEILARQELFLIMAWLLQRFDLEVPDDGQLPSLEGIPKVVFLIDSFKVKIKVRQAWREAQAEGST
test-name: IC50 determination, 17α-OH pregnenolone lyase activity (DHEA formation), reconstituted P450 17A1/POR/b5
Type: biochemical
condition-context: IC50 = Ki [1 + (S/Km)] for competitive inhibition, Km from Ref. 37; read-out: Predicted Ki, 17α-OH pregnenolone lyase
Below is a list of entries, each paired with its recorded Ki value.
outcome-measure: Ki (nM)

molecule	meas-value
Clc1ccccc1C(c1ccccc1)(c1ccccc1)n1ccnc1 [Clotrimazole]	81
CC(C)[C@](O)(c1ccc2cc(OC(F)F)c(OC(F)F)cc2c1)c1c[nH]nn1 [Seviteronel, (S)-Seviteronel]	2810
C[C@]12CC[C@H](O)CC1=CC[C@@H]1[C@@H]2CC[C@]2(C)C(c3cccnc3)=CC[C@@H]12 [Abiraterone, 17-(3-pyridyl)androsta-5,16-dien-3β-ol]	3.4

Where do these numbers come from? They come from paper PMC8350020.
